The values you see were collected from patent US20250051277A1.

The entries below are paired with their reported Prodrug (%) remaining, Human Plasma.
- Condition notes: 1 h, 10 μM
Your answer is read as %, so omit the unit and give the number.

Solved entries (count: 3):
In [3]: df
Out[3]:
                                   compound                      measured_metric  number
0  CCCC(C)(C)C(=O)OC1=C[C@@H]2N(C)CC[C@]2(c2ccc(OC)c(OC)c2)CC1 [Compound 429]  Prodrug (%) remaining, Human Plasma    95.3
1  CCCCCCCC(=O)OC1=C[C@@H]2N(C)CC[C@]2(c2ccc(OC)c(OC)c2)CC1 [Compound 395]  Prodrug (%) remaining, Human Plasma     1.1
2  COc1ccc([C@@]23CCC(OC(=O)c4ccc(C(C)C)cc4)=C[C@@H]2N(C)CC3)cc1OC [Compound 371]  Prodrug (%) remaining, Human Plasma    90.7

Specify measured Prodrug (%) remaining, Human Plasma for CCCCC(CC)C(=O)OC1=C[C@@H]2N(C)CC[C@]2(c2ccc(OC)c(OC)c2)CC1 (stereo partly drawn) [Compound 401] . 96.6
